- Tested on: SF-295 CNS
- Assay Explanation: NCI tumour cell line growth inhibition, 48 h
Measured Quantity: TGI

Some solved entries appear below for comparison.
Molecule: CC(=O)CC1=C(OC(C)C)C2(OCCO2)C1O (stereo not given)
System Tested: SF-295 CNS
TGI: > 100 µM
//
Molecule: Cc1[nH]c(=O)nc(Nc2ccc(Cl)cc2)c1C(=O)N1CCN(CCO)CC1
System Tested: SF-295 CNS
TGI: > 100 µM
//
Molecule: CC(=O)OC(Cc1c(O)c2c(C)cccc2oc1=O)C(C)(C)O (stereo not given)
System Tested: SF-295 CNS
TGI: > 100 µM

Q. Record request: TGI value, item `Cn1cccc1-c1cc(-c2ccc(Br)cc2)[nH]c(=O)c1C#N`
A. > 100 µM

Q. Record request: TGI value, item `Oc1c(Cl)c(Cl)c(O)c2c1CCCC2`
A. 37.6 µM

Q. Record request: TGI value, item `OCCn1cnc2c(SCc3ccccc3)ncnc21`
A. > 100 µM
